I'd appreciate it if you could supply growth values for the items below.
system: NCI-H522 lung; experiment: NCI-60 one-dose screen, 48 h (100 = growth as untreated, 0 = no growth, -100 = all killed); details: 10 µM unless noted
This is part of a sample that, as a whole, favours compounds with a hit. Of some 83,000 tested, about 20% had one in any assay.
Give bare numbers, in %.

| COMPOUND | growth / % |
| --- | --- |
| O=C(COc1ccc(/C=C2\Cc3ccc(Cl)cc3C2=O)cc1)Nc1nc2ccccc2s1 | 96.7 |
| Cc1[nH]c(C(=O)Nc2ccc(C(=O)NCCN)cc2OC(C)C)c(Cl)c1Cl | -6.73 |
| CN1C(=C2C(=O)OC(C)(C)OC2=O)CCC1C(=O)NCc1ccc(Cl)cc1Cl (centres undefined) | 54.2 |
| CCCC1CCC(O)(C(C)(O)C(=O)NC2C(=O)N3NCCCC3C(=O)N(O)C(C)C(=O)N3NCCCC3C(=O)N3NCC(O)CC3C(=O)NC(C)C(=O)OC2C(C)C)OC1CC (centres undefined) | -25 |
| c1ccc2c(-c3nc(-c4c[nH]c5ccncc45)cs3)c[nH]c2c1 | 56.3 |

Please report growth for every entry that follows.
1. CN(C)c1ccc2nc3ccc(=[N+](C)C)c([N+](=O)[O-])c-3sc2c1
2. CC(=O)O.CN1[CH-]N(Cc2ccc(C#N)cc2)c2ccccc21.[Ag+]

1: 16.3; 2: -89.1

Items follow; give growth for each.
1. CCCCn1c(=O)c(-c2cc(-c3ccc(Cl)cc3)nc(-c3ccc(Cl)cc3)c2)cc2ccc(Cl)cc21
2. CC(=O)c1ccc(Nc2nc(C(C)=O)c(C)s2)cc1

1: 98.4; 2: 87.9
